- protocol_text: Bmi1 luciferase reporter increase in mESCs, primary screen, esBAF inhibitor project, mouse ES cells, Bmi1 luciferase knock-in, single point (AID 602393);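 further: 0% = median of the plate's neutral control wells and 100% = double that signal; a rise in the Bmi1 reporter signal indicates esBAF inhibition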
- condition_set: 24 h, at 12.5 µM, active compounds read high, 100% = twice the neutral-well signal
About 7,000 (2%) of roughly 350,000 compounds were called active. Shown is part of a subset that was picked to be rich in actives.
outcome_measure: reporter increase (%)
Reply numerically in %, unit not repeated.

Example entries begin here.
- compound: "C[C@@H](NC(=O)[C@@H]1[C@@H](CO)[C@@H]2Cn3c(ccc(C4=CCCCC4)c3=O)[C@@H]2N1C)c1ccccc1"
  reporter increase [%]: 1.48
- compound: "CCOc1ccc(C(=O)Nc2c3c(nn2-c2ccccc2)CS(=O)(=O)C3)cc1"
  reporter increase [%]: -0.973
- compound: "CCOC(=O)c1ccccc1CN1C(=O)c2ccccc2S1(=O)=O"
  reporter increase [%]: 0.163

Entry `N=c1c2c(-c3ccccc3)c(-c3ccccc3)n(Cc3ccccc3)c2ncn1CCCO` , reporter increase reported as -11.6

Entry `O=C(CCc1ccccc1F)N1CCN(c2ccccc2)CC1` , reporter increase reported as 1.91

Entry Cc1ccn(CCC(=O)N2c3ccccc3CC2C)n1 (centres undefined) , reporter increase reported as 0.95

Entry `C[C@H]1CN([C@@H](C)CO)C(=O)c2cc(Br)cnc2O[C@@H]1CN(C)C(=O)c1ccccc1` , reporter increase reported as -3.42

Entry `CCOC(=O)c1cc2ccccc2n1CC(=O)c1ccccc1` , reporter increase reported as 2.35

Entry `O=C(C[C@@H]1C=C[C@@H](NC(=O)c2cccnc2)[C@H](CO)O1)NCCN1CCCCC1` , reporter increase reported as -3.44

Entry CN1CCc2ccccc2C1Cc1ccccc1NC(=O)c1sc2ccccc2c1Cl (centres undefined) , reporter increase reported as 51

Entry `CCOC(=O)CN1C(=O)C(=O)c2cc(C)ccc21` , reporter increase reported as -5.46

Entry `CS(=O)(=O)Nc1ccc2c(c1)[C@H]1C[C@H](CC(=O)NCc3ccc(Oc4ccccc4)cc3)O[C@H](CO)[C@H]1O2` , reporter increase reported as 7.43

Entry `Cn1cnc(CCNC(=O)[C@H]2[C@H](CO)[C@H]3Cn4c(cccc4=O)[C@H]3N2C(=O)Nc2ccccc2)c1` , reporter increase reported as 6.91

Entry CCCC(=O)N1c2ccc(-c3csc(N)n3)cc2CC1C (centres undefined) , reporter increase reported as 41.3

###

- protocol_text: Bmi1 luciferase reporter increase in mESCs, primary screen, esBAF inhibitor project, mouse ES cells, Bmi1 luciferase knock-in, single point (AID 602393)
- condition_set: 24 h, at 12.5 µM, active compounds read high, 100% = twice the neutral-well signal
The whole screen tested about 350,000 compounds, of which about 7,000 (2%) were called active. The sample as a whole holds a higher share of actives than the screen did.
outcome_measure: reporter increase (%)
Reply numerically in %, unit not repeated.

Example entries begin here.
- molecule: "CNC[C@H]1OCCCC[C@@H](C)Oc2ccc(NC(=O)Cc3ccccc3)cc2C(=O)N([C@H](C)CO)C[C@@H]1C"
  outcome_measure: "reporter increase"
  quantitative_result: -1.06
- molecule: "C[C@H](CO)N1C[C@H](C)[C@@H](CN(C)Cc2cccc3c2OCCCO3)OCc2cn(nn2)CCCC1=O"
  outcome_measure: "reporter increase"
  quantitative_result: -0.925
- molecule: "O=C(C[C@@H]1C[C@@H]2c3cc(NC(=O)C4CCOCC4)ccc3O[C@@H]2[C@@H](CO)O1)NC1CCCCC1"
  outcome_measure: "reporter increase"
  quantitative_result: 5.22

Entry COCC1CCN(C(=O)C2CCC(=O)N(CC3CCCCC3)C2)CC1 (stereo not drawn) , reporter increase reported as -0.459

Entry `COc1ccccc1-c1cn(CC[C@H]2CC[C@H](NC(=O)C3CCOCC3)[C@@H](CO)O2)nn1` , reporter increase reported as 0.605

Entry `O=C(NCC[C@@H]1CC[C@@H](NC(=O)C2CCCC2)[C@H](CO)O1)c1cnccn1` , reporter increase reported as -3.83

Entry `CCNC(=O)[C@H]1[C@H](CO)[C@H]2Cn3c(ccc(/C=C/c4ccccc4)c3=O)[C@@H]1N2C(=O)C1CCC1` , reporter increase reported as 0.423

Entry `CN1c2ccc(C#Cc3ccccc3F)cc2[C@@H]2[C@@H](CCN2C(=O)Cc2cccnc2)[C@H]1CO` , reporter increase reported as 1.33

Entry `C[C@H](CO)N1C[C@H](C)[C@@H](CN(C)Cc2ccccc2)OCCCC[C@H](C)Oc2ccc(NC(=O)Cc3ccccc3)cc2C1=O` , reporter increase reported as 1.95

Entry `Cc1ccc(NC(=O)c2ccc(Cl)nc2)cc1S(=O)(=O)N1CCOCC1` , reporter increase reported as 0.751

Entry `COc1ccc(S(=O)(=O)Nc2ccc3c(c2)C(=O)N([C@@H](C)CO)C[C@@H](C)[C@H](CN(C)Cc2ccc(C(F)(F)F)cc2)OCCCC[C@@H](C)O3)cc1` , reporter increase reported as -1.52

Entry `Cc1ccc(NC(=O)c2ccc(Oc3ncccn3)cc2)cc1` , reporter increase reported as 34

Entry `CCC(=O)N(C)C[C@@H]1Oc2cc(C#CC(C)(C)O)ccc2S(=O)(=O)N([C@@H](C)CO)C[C@@H]1C` , reporter increase reported as 1.13

###

- protocol_text: Bmi1 luciferase reporter increase in mESCs, primary screen, esBAF inhibitor project, mouse ES cells, Bmi1 luciferase knock-in, single point (AID 602393);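 further: 0% = median of the plate's neutral control wells and 100% = double that signal; a rise in the Bmi1 reporter signal indicates esBAF inhibition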
- condition_set: 24 h, at 12.5 µM, active compounds read high, 100% = twice the neutral-well signal
About 7,000 (2%) of roughly 350,000 compounds were called active. Many of the other results were omitted from the sample, so actives are more common in it than they were.
outcome_measure: reporter increase (%)
Reply numerically in %, unit not repeated.

Example entries begin here.
- substance_smiles: "Cc1ccc2nc(Nc3ccccc3)cc(C)c2c1"
  reporter increase (%): 48.3
- substance_smiles: "Cc1ccc(NC(=O)c2ccn(C(=O)Nc3ccccc3)n2)c(C)c1"
  reporter increase (%): 33.7

Please examine the following record next.
Entry `CCC(=O)N1[C@@H]2CN(C(=O)Nc3ccc(Cl)cc3)c3ccccc3[C@@H]2[C@@H]1CO` , reporter increase reported as 7.74

###

- protocol_text: Bmi1 luciferase reporter increase in mESCs, primary screen, esBAF inhibitor project, mouse ES cells, Bmi1 luciferase knock-in, single point (AID 602393);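 further: 0% = median of the plate's neutral control wells and 100% = double that signal; a rise in the Bmi1 reporter signal indicates esBAF inhibition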
- condition_set: 24 h, at 12.5 µM, 100% = twice the neutral-well signal
Screen size: about 350,000 compounds; about 7,000 (2%) were called active. No stated cut-off is given here; in the data, active means activation above about 40%; inconclusive means no clear call, values can overlap the other calls; inactive means below that. The full list was thinned out, with actives kept by preference.
Select the matching outcome among active, inactive

Take a look at these entries with their results.
- compound: "Cc1ccc(NC(=O)Cn2nnc(C(=O)NCc3ccco3)c2N)c(C)c1"
  group_label: "inactive"
- compound: "Cc1ccc(C(=O)N2CCCc3ccccc32)c(Cl)c1"
  group_label: "inactive"
- compound: "C[C@@H]1CN([C@H](C)CO)C(=O)c2cc(NC(=O)CCCN(C)C)ccc2O[C@@H](C)CCCCO[C@H]1CN(C)CC1CCCCC1"
  group_label: "inactive"
- compound: "Fc1ccc2nc(N3CCCCC3)sc2c1"
  group_label: "active"
- compound: "COc1ccc(NC(=O)Nc2ccc3c(c2)C(=O)N([C@H](C)CO)C[C@H](C)[C@@H](CN(C)Cc2ccccc2)OCCCC[C@H](C)O3)cc1"
  group_label: "inactive"
- compound: "CO[C@@H]1CN(C)C(=O)c2ccc(NS(C)(=O)=O)cc2OC[C@@H](C)N(CC2CC2)C[C@@H]1C"
  group_label: "inactive"

--- query ---
What outcome does the record of this test show for Cc1nn(CC(=O)NCC2CCCO2)c(=O)c2cc3ccccc3n12 (configuration not stated) ?
inactive

###

- protocol_text: Bmi1 luciferase reporter increase in mESCs, primary screen, esBAF inhibitor project, mouse ES cells, Bmi1 luciferase knock-in, single point (AID 602393);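 further: 0% = median of the plate's neutral control wells and 100% = double that signal; a rise in the Bmi1 reporter signal indicates esBAF inhibition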
- condition_set: 24 h, at 12.5 µM, active compounds read high, 100% = twice the neutral-well signal
The campaign covered roughly 350,000 compounds. About 7,000 (2%) were called active. The sample as a whole holds a higher share of actives than the screen did.
Each item that follows carries a reported reporter increase.
Reply numerically in %, unit not repeated.

Example entries begin here.
- substance_smiles: "Cc1noc(C)c1S(=O)(=O)Nc1ccc2c(c1)C(=O)N([C@H](C)CO)C[C@H](C)[C@H](CN(C)S(=O)(=O)c1cn(C)cn1)OCCCC[C@@H](C)O2"
  reporter increase, %: -2.07
- substance_smiles: "CCC(=O)N[C@H]1CC[C@@H](CC(=O)NCc2cc(F)cc(F)c2)O[C@@H]1CO"
  reporter increase, %: 0.353
- substance_smiles: "C[C@H](CO)N1C[C@H](C)[C@@H](CN(C)Cc2ccncc2)Oc2ccc(NS(=O)(=O)c3ccc(Cl)cc3)cc2CC1=O"
  reporter increase, %: 4.09
- substance_smiles: "Cn1c(CNc2nc(-c3ccccc3)cs2)nnc1SCC(=O)c1ccccc1"
  reporter increase, %: 6.92

Please examine the following record next.
Entry `COCC(=O)N1C[C@@H]2[C@H](c3ccccc31)[C@@H](CO)N2C(=O)C1CC1` , reporter increase reported as -6.95

Recorded values, source PubChem BioAssay AID602393.
